# System: ST8814
# Experiment Description: relative IC50 (inflection point of fitted dose-response curve, CellTox-Green cytotoxicity, 72 h; top asymptote may be below 50%); higher = less potent
Readout Type: relative IC50

Would you please look over these solved cases?
INSERT INTO measurements (compound, assay_value) VALUES
  ('CCn1c(C(=O)N(C2CC2)C2CC2)cc2c3c(ncn3C)c(Nc3cc(C)n(C)n3)nc21', '> 10000 nM'),
  ('CCn1c(-c2nonc2N)nc2cnc(Oc3cccc(NC(=O)c4ccc(OCCN5CCOCC5)cc4)c3)cc21', '> 10000 nM'),
  ('COc1ccccc1S(=O)(=O)Nc1ccc2c(c1)CN(C)C(=O)N2', '2080 nM'),
  ('CO[C@H]1C[C@@H]2CC[C@@H](C)[C@@](O)(O2)C(=O)C(=O)N2CCCC[C@H]2C(=O)O[C@H]([C@H](C)C[C@@H]2CC[C@@H](OCCO)[C@H](OC)C2)CC(=O)[C@H](C)/C=C(\C)[C@@H](O)[C@@H](OC)C(=O)[C@H](C)C[C@H](C)/C=C/C=C/C=C/1C', '> 100 nM'),
  ('CO[C@H]1C[C@@H]2CC[C@@H](C)[C@@](O)(O2)C(=O)C(=O)N2CCCC[C@H]2C(=O)O[C@H]([C@H](C)C[C@@H]2CC[C@@H](OP(C)(C)=O)[C@H](OC)C2)CC(=O)[C@H](C)/C=C(\C)[C@@H](O)[C@@H](OC)C(=O)[C@H](C)C[C@H](C)/C=C/C=C/C=C/1C', '> 100 nM'),
  ('CN(C)C/C=C/C(=O)Nc1cc2c(Nc3ccc(F)c(Cl)c3)ncnc2cc1O[C@H]1CCOC1', '> 1000 nM'),
  ('Nc1ncn([C@H]2C[C@H](O)[C@@H](CO)O2)c(=O)n1', '> 10000 nM'),
  ('C[C@]12CC[C@H](O)CC1=CC[C@@H]1[C@@H]2CC[C@]2(C)C(c3cccnc3)=CC[C@@H]12', '> 5000 nM');

Query: # get_value(readout= relative IC50, system= ST8814) for `CN1CC[C@H](c2c(O)cc(O)c3c(=O)cc(-c4ccccc4Cl)oc23)[C@H](O)C1`
Result: 931 nM

Query: Subsequent entry: `CC1(C)CCC(c2ccc(Cl)cc2)=C(CN2CCN(c3ccc(C(=O)NS(=O)(=O)c4ccc(N[C@H](CCN5CCOCC5)CSc5ccccc5)c(S(=O)(=O)C(F)(F)F)c4)cc3)CC2)C1`
Result: 1500 nM

====

Reported drug sensitivity score values for a set of molecules
# Test system: S462
# Experiment Description: drug sensitivity score (DSS, CellTiter-Glo viability, 72 h) (DSS (dimensionless)); higher = more sensitive; extreme values may be limits of the assay
// no unit string in output, number only

Guide cases for drug sensitivity score, answers given:
INSERT INTO assay_data (molecule, assay_value) VALUES
  ('COC(=O)C[C@](O)(CCCC(C)(C)O)C(=O)O[C@@H]1C(OC)=C[C@]23CCCN2CCc2cc4c(cc2[C@H]13)OCO4 [Omacetaxine] (max concentration tested 10000 nM)', 31.4),
  ('O=C(CCCCCCC(=O)Nc1ccc([C@H]2O[C@@H](CSc3nc(-c4ccccc4)c(-c4ccccc4)o3)C[C@@H](c3ccc(CO)cc3)O2)cc1)NO [Tubacin] (max concentration tested 10000 nM)', 3.54),
  ('CC(=O)OC[C@H]1O[C@@H]([S-])[C@H](OC(C)=O)[C@@H](OC(C)=O)[C@@H]1OC(C)=O.CCP(CC)CC.[Au+] [Auranofin] (max concentration tested 2500 nM)', 8.14);

Next up:
Query: Given the molecule O=C(O)CC[C@H]1CC[C@@](c2cc(F)ccc2F)(S(=O)(=O)c2ccc(Cl)cc2)CC1 [MK-0752] (max concentration tested 1000 nM) , what is its reported drug sensitivity score?
Result: 0
